# assay name: Human HepG2 cell viability assay in 384 well format
# Assay type: toxicity, cell-based
# Set-up: dose 125 nL, time 70.5 hour; concentration not given beside the values
# experimental context: HepG2 cells, read-out: Inhibition
Some molecules, each annotated with its measured cytotoxicity at 70.5 h.
// units = %; emit number, no label

Sample records with cytotoxicity at 70.5 h:
INSERT INTO measurements (molecule, recorded_metric, value_measured) VALUES
  ('CCN(CC)S(=O)(=O)NC(C)C(=O)N(C)C (stereo unspecified)', 'cytotoxicity at 70.5 h', 0.169),
  ('COc1ccc(C2=CCN(C(=O)CN(C)S(C)(=O)=O)CC2)cc1', 'cytotoxicity at 70.5 h', -10.2),
  ('Cc1cccc2c1nc1n2[C@@H](CNC(=O)Cc2ccccc2)COC1', 'cytotoxicity at 70.5 h', -1.08);

Enquiry: Complete the entry with cytotoxicity at 70.5 h for Cc1ccc(Sc2ccc(N3CCCC(C(=O)O)C3)nn2)cc1 (stereo unspecified)
Return: 0.439

Enquiry: Return cytotoxicity at 70.5 h for the following molecule: CN(CCN1CCOC1=O)CC(=O)Nc1cc(F)cc(F)c1
Return: -19.7

Enquiry: For the molecule O=S(=O)(NCCn1ccc(-c2cccs2)n1)C1CC1 , give its measured cytotoxicity at 70.5 h value.
Return: -0.924

Enquiry: Give cytotoxicity at 70.5 h for the following molecule: CC(CN1CCOCC1)NC(=O)Nc1cccnc1-n1cccn1 (stereo unspecified)
Return: -14

Enquiry: Tell me measured cytotoxicity at 70.5 h for CC(O)c1cn(CC2CCN(C(=O)c3cccc(N(C)C)c3)CC2)nn1 (stereo unspecified) please.
Return: -4.18

Enquiry: Give the value of cytotoxicity at 70.5 h reported for the following: O=C(O)CCCC(=O)N1CCC(c2noc3cc(F)ccc23)CC1
Return: -13.8

Enquiry: Item FC(F)(F)c1ccc2nc([C@H]3CCN(C4CCCCC4)C3)[nH]c2c1 : provide cytotoxicity at 70.5 h
Return: 5.15

Enquiry: Look up cytotoxicity at 70.5 h of CCOc1ccc(-n2nnc(C(=O)O)c2-c2ccncc2)cc1 and report it.
Return: 12.9

====

Measured cytotoxicity at 70.5 h of individual entries
# assay name: Human HepG2 cell viability assay in 384 well format
# Format: toxicity, cell-based
# Set-up: dose 125 nL, time 70.5 hour; concentration not given beside the values
# experimental context: HepG2 cells, read-out: Inhibition
Output spec: scalar in %, unitless text.

Here is how some compounds turned out for cytotoxicity at 70.5 h.
INSERT INTO results (compound, value_measured) VALUES
  ('C[C@H](O)c1cnn(-c2ccccc2)c1', -1.87),
  ('Cn1nnc2c(N3CC(C(=O)NCCC4=CCCCC4)C3)ncnc21', -18.5),
  ('COc1ccc(CC(=O)N2CCCC(Cn3cc(CN)nn3)C2)cc1 (configuration not stated)', -4.47),
  ('O=C1N(c2ccsc2)CCC12CCCN(Cc1ccccn1)C2 (configuration not stated)', -4.36),
  ('N#Cc1cc(F)ccc1NCC1CCN(S(=O)(=O)C(F)F)CC1', -14.3),
  ('CC(C)c1nccn1C1CCCN(C(=O)c2cn3cccnc3n2)C1 (configuration not stated)', -3.43),
  ('Cc1cc(C(=O)N2CCC3(CCN3Cc3ccc(F)cc3)C2)no1 (configuration not stated)', -3.92),
  ('CN(C)S(=O)(=O)c1ccc(CN2CCCC2CO)o1 (configuration not stated)', -17);

Enquiry: Return value of cytotoxicity at 70.5 h for input Cc1ccc(-c2nc(CCNC(=O)CCN3CCOC3=O)co2)cc1 , no commentary.
Return: -2.58

====

cytotoxicity at 70.5 h by entry:
# assay name: Human HepG2 cell viability assay in 384 well format
# Assay type: toxicity, cell-based
# Parameters: dose 125 nL, time 70.5 hour; concentration not given beside the values
# experimental context: HepG2 cells, read-out: Inhibition
All answers are understood in %, so give the number only.

Use the examples below as a reference point.
INSERT INTO results (molecule, value_measured) VALUES
  ('CCC(=O)N1CC[C@H]2C(=O)N(Cc3ccc(OC)cc3)CCO[C@H]2C1', 34.1),
  ('O=C(CCN1CCCCC1)N1CCC(Cc2ccc(CO)cc2)C1 (centres undefined)', -6.38),
  ('CC1=Nc2c(c(=O)[nH]n2C(C)C)C(c2ccc(F)c(F)c2)S1 (centres undefined)', -4.57),
  ('CN(C)CCCn1ccnc1C1CCN(c2cccc(C(=O)O)n2)CC1', -5.15);

Enquiry: Tell me its cytotoxicity at 70.5 h given O=C(CN1CCC(N2CCNC2=O)CC1)NCC(F)(F)F as the entry.
Return: -11.3

Enquiry: Answer with the recorded cytotoxicity at 70.5 h of c1cncc(C[C@@H]2CC[C@H](CN3CCCOCC3)O2)c1 only.
Return: -10.6

Enquiry: Supply cytotoxicity at 70.5 h value. Item: COC(=O)CCn1ccc(=O)c2cc(F)ccc21
Return: -8.87

Enquiry: Answer with the recorded cytotoxicity at 70.5 h of CCc1c(C)nc2n(c1=O)CC(C(=O)Nc1ccccc1C)CS2 (centres undefined) only.
Return: 4.11

Enquiry: Consider the molecule COc1ccccc1CC(=O)NS(C)(=O)=O . State its measured cytotoxicity at 70.5 h.
Return: -10.7

Enquiry: Complete the entry with cytotoxicity at 70.5 h for Cc1occc1C(=O)N(CCN(C)C)Cc1ccccn1
Return: 15.9

====

Recorded cytotoxicity at 70.5 h values for a group of molecules are listed next.
# assay name: Human HepG2 cell viability assay in 384 well format
# Format: toxicity, cell-based
# Set-up: dose 125 nL, time 70.5 hour; concentration not given beside the values
# experimental context: HepG2 cells, read-out: Inhibition
The reply must contain the numeric value and, after it, the unit.

Please review the following examples before continuing.
INSERT INTO measurements (molecule, value_measured) VALUES
  ('COc1ccc(-c2nc3c([nH]2)CCNC3C(=O)O)c2ccccc12 (stereo unspecified)', '-7.46%'),
  ('Cc1nonc1CNC(=O)C(C)Oc1cccc(F)c1 (stereo unspecified)', '-8.47%'),
  ('CN(C)c1ccc(CN2CCC(C(O)Cc3ccccc3)CC2)cn1 (stereo unspecified)', '-3.93%'),
  ('COc1cccc(CN2CCN(C(=O)CN3CCOCC3)CC2)n1', '0.577%'),
  ('CC1=N[C@@]2(CC[C@@H]3CN(C(=O)NCc4ccccc4C)C[C@@H]32)C(=O)N1', '7.73%'),
  ('O=C(Nc1cccc(F)c1)C1CCN(Cc2noc(C3CC3)n2)CC1', '-13.9%'),
  ('CCCOc1ccc(Cl)cc1CNc1ncnc2oc(C)nc12', '-6.3%'),
  ('CN1CCN(c2ccc(C(=O)N3CCCC(c4ncc[nH]4)C3)cc2)CC1 (stereo unspecified)', '-9.77%'),
  ('N#Cc1ccc(CS(=O)(=O)NC(=O)COc2ccc3c(c2)CCC3)cc1', '-5.23%'),
  ('O=C(O)c1sccc1Oc1ccc(NC(=O)C2CC2)cc1', '-0.448%');

Shifting focus to the molecule that follows.
Enquiry: // fetch cytotoxicity at 70.5 h given entry Cc1noc(C)c1CN1C[C@@H]2COC[C@@H](C(=O)N3CCCCO3)[C@@H]2C1
Return: -8.21%

====

# maps each entry to its cytotoxicity at 70.5 h
# assay name: Human HepG2 cell viability assay in 384 well format
# Format: toxicity, cell-based
# Design: dose 125 nL, time 70.5 hour; concentration not given beside the values
# experimental context: HepG2 cells, read-out: Inhibition
The response must be a number in % with no trailing unit.

INSERT INTO measurements (compound, value_measured) VALUES
  ('Cc1cc(C)n(CC2CCCCN2C(=O)CCc2ccncc2)n1 (stereo not drawn)', -0.893);

Enquiry: Name the recorded cytotoxicity at 70.5 h of the compound listed here: CC(C)CN1CCCC12CCN(c1nncs1)C2 (stereo not drawn)
Return: -4.38

Enquiry: Give a short answer stating reported cytotoxicity at 70.5 h for CC(C(=O)NCc1ccnc(N2CCCC2)c1)n1cccn1 (stereo not drawn) .
Return: -10.3

Enquiry: // Input: CN(C)CCN1CCOCC2(C1)CN(Cc1ccco1)CCO2 (stereo not drawn) . Output its cytotoxicity at 70.5 h only.
Return: -17.1

Enquiry: // Input: Cn1cccc1CN1CCC2(CC1)CN(c1ncccn1)CCO2 . Output its cytotoxicity at 70.5 h only.
Return: 1.85

====

# assay name: Human HepG2 cell viability assay in 384 well format
# Assay type: toxicity, cell-based
# Design: dose 125 nL, time 70.5 hour; concentration not given beside the values
# experimental context: HepG2 cells, read-out: Inhibition
recorded metric: cytotoxicity at 70.5 h (%)
Dear colleague, please return just the value in %, with no unit written.

Example entries and their recorded answers appear below.
INSERT INTO measurements (compound, recorded_metric, measurement_unit, value_measured) VALUES
  ('O=C(O)C(c1ccc2c(c1)OCCO2)N1CCC(N2CCSCC2)CC1 (stereo unspecified)', 'cytotoxicity at 70.5 h', '%', -1.86),
  ('CC(C)(C)OC(=O)N1CCCC[C@H]1C(=O)NCc1nccs1', 'cytotoxicity at 70.5 h', '%', -9.82);

Enquiry: Recall and state the measured cytotoxicity at 70.5 h for CC(=O)c1sc(C(NC(=O)c2ccccc2)C2CC2)nc1C (stereo unspecified) .
Return: 8.83

Enquiry: Give a short answer stating reported cytotoxicity at 70.5 h for Cn1cncc1-c1nnc([C@H]2CCN(Cc3ncc[nH]3)C2)o1 .
Return: 2.99

Enquiry: # return recorded cytotoxicity at 70.5 h for input CCCn1c(C)c(CC(=O)NC)c2c1CC(C)(C)CC2=O
Return: -6.96

Enquiry: Provide cytotoxicity at 70.5 h value for the following compound: Cc1ccnc(C2CCN(S(=O)(=O)c3cn(C)cn3)CC2)n1
Return: -9.62

Enquiry: Tell me its cytotoxicity at 70.5 h given CC(=O)c1cccc(OC(C)C(=O)Nc2cnn(CCN(C)C)c2)c1 (stereo unspecified) as the entry.
Return: -12.3

Enquiry: Please list cytotoxicity at 70.5 h recorded for the compound Cc1cccc(CN2Cc3[nH]nc(COCCO)c3C2)n1
Return: -0.969

Enquiry: Supply cytotoxicity at 70.5 h value. Item: c1cc2c(cc1Cn1cc(C3CCOC3)nn1)OCO2 (stereo unspecified)
Return: -16.1

Enquiry: State its cytotoxicity at 70.5 h: O=C(N1CCCO1)[C@]12COC[C@H]1CN(Cc1nccs1)C2
Return: -7.21

Enquiry: Give a short answer stating reported cytotoxicity at 70.5 h for CC(=O)N1CCN(C(=O)NCCCN(C)S(C)(=O)=O)CC1 .
Return: -5.97
